All figures here come from PubChem BioAssay (Tox21).

- ASSAY_EXPLANATION: qHTS assay for identifying genotoxic compounds that show differential cytotoxicity against isogenic chicken DT40 cell lines with known DNA damage response pathways - Rad54/Ku70 mutant cell line (AID 743015); further: nearly all actives have a fitted effect of over 60% in size
- TEST_CONTEXT: DT40 Rad54/Ku70 mutant viability, CellTiter-Glo, 40 h; series mostly up to 66.8 µM
Records with an inconclusive call do not appear. Activity calls are given as the source filed them. The call rests on the fitted dose curve; in most records, active means well fitted cell-killing curve with a large enough effect in the repeat runs; inconclusive means weak or mixed curves; inactive means no such curve, though single readings can be large or run the other way.
The reply should be one of these categories: 1 (yes) (active), 0 (no) (inactive)

Ask: Which outcome was assigned to Clc1ccc(C(Cl)(Cl)Cl)cc1Cl in this test?
Reply: 0 (no)

Ask: Which outcome was assigned to C=CCOC(=O)c1ccccc1N in this test?
Reply: 0 (no)

Ask: Which outcome was assigned to CN/C(=N\[N+](=O)[O-])NCc1cnc(Cl)s1 in this test?
Reply: 0 (no)

Ask: Which outcome was assigned to Cc1ccccc1OP(=O)(Oc1ccccc1C)Oc1ccccc1C in this test?
Reply: 1 (yes)

Ask: Which outcome was assigned to CCCN in this test?
Reply: 0 (no)

Ask: Which outcome was assigned to O=C(NC(=O)c1ccccc1Cl)Nc1ccc(OC(F)(F)F)cc1 in this test?
Reply: 0 (no)

Ask: Which outcome was assigned to CSC1=N[C@@](C)(c2ccccc2)C(=O)N1Nc1ccccc1 in this test?
Reply: 1 (yes)

Ask: Which outcome was assigned to C#CCC1=C(C)C(OC(=O)C2C(C=C(C)C)C2(C)C)CC1=O (centres undefined) in this test?
Reply: 1 (yes)

Ask: Which outcome was assigned to C#CC1(O)CCCCC1 in this test?
Reply: 0 (no)

Ask: Which outcome was assigned to CCCCCCCc1ccc(O)cc1 in this test?
Reply: 1 (yes)

Ask: Which outcome was assigned to CCOP(=S)(OCC)Oc1cc(C)nc(N(CC)CC)n1 in this test?
Reply: 1 (yes)

Ask: Which outcome was assigned to Cc1ccc2cc3c(ccc4ccccc43)c3c2c1CC3 in this test?
Reply: 0 (no)

Ask: Which outcome was assigned to Brc1cccc(-c2ccccc2)c1 in this test?
Reply: 0 (no)

Ask: Which outcome was assigned to COC(=O)c1ccccc1S(=O)(=O)NC(=O)Nc1nc(C)nc(OC)n1 in this test?
Reply: 0 (no)
